Assay: Acute toxicity determination, intraperitoneal
Design: species or system Mice (dd-strain)
Conditions: mouse, in vivo, ip; dd mice, single i.p., 14 days, Behrens-Karber
Metric name: LD50 at 336 h (mg/kg)

1) CO[C@@]12[C@H](COC(N)=O)C3=C(C(=O)C(C)=C(Nc4ccc(N)cc4)C3=O)N1C[C@@H]1N[C@@H]12	18
2) CO[C@@]12[C@H](COC(N)=O)C3=C(C(=O)C(C)=C(Nc4ccc(O)cc4)C3=O)N1C[C@@H]1N[C@@H]12 [Compound IV, 7-N-(p-hydroxyphenyl)-mitomycin C]	34

Origin of measurements: patent US4231936A
